Taken from ChEMBL document CHEMBL3507680.

- ASSAY PROTOCOL: Human HepG2 cell viability assay in 384 well format
- Type: toxicity, cell-based
- Parameters: dose 125 nL, time 70.5 hour; concentration not given beside the values
- CONDITION CONTEXT: HepG2 cells, read-out: Inhibition
Field: cytotoxicity at 70.5 h. Provide a value for each of the compounds that follow.
One number for each entry, in %.

Record excerpt, results attached:
| COMPOUND | cytotoxicity at 70.5 h / % |
| --- | --- |
| COc1ncnc2c1CCN(Cc1cccs1)CC2 | -2.23 |
| CN1CCN(S(C)(=O)=O)Cc2cccnc21 | -2.81 |
| Cc1cnn(CCNCc2ccc(C#N)cc2F)c1 | -13.7 |
| Cc1cnn(CC2CCCCN2C(=O)c2sccc2C#N)c1 (centres undefined) | -4.1 |
| CCCn1c(C)c(CC(=O)N(C)CC(=O)OC)c2c1CC(C)(C)CC2=O | -3.68 |
| CN(C)C(=O)CNC(=O)c1ccc(Cl)cc1F | 45.3 |
| Cc1cccnc1C(NC(=O)CNC(=O)c1ccoc1C)C(C)C (centres undefined) | 3.13 |
| Cc1ccccc1OCCn1cnc2oc(C)c(C(=O)O)c2c1=O | -7.96 |
| COc1ccc(Br)cc1NCC(=O)NC(C)(C#N)C1CC1 (centres undefined) | 2.31 |
| Cc1nc(C2CCCN2CCCS(=O)(=O)N(C)C)no1 (centres undefined) | 22.2 |

Quick one: give me cytotoxicity at 70.5 h for each item below, same order please.
1. Cc1sc(C(=O)N(C)S(C)(=O)=O)cc1-c1ccc(F)cc1
2. O=C(C1CCC1)N1CCC(=O)N(C2CC2)Cc2cc(F)ccc21

RESULT:
1: -2.76; 2: 1.48

Quick one: give me cytotoxicity at 70.5 h for each item below, same order please.
1. NC(=O)Cn1cc(NC(=O)N2CCCC(O)C2)cn1 (centres undefined)
2. O=C1NC(c2ccccc2)=N[C@@]12CC[C@@H]1CN(Cc3ccncc3)C[C@@H]12
3. Cc1ccc(CCNC(=O)NCc2cccc(OC(F)F)c2)cn1
4. COCCN1CCn2c(CN(C)C(C)C)cnc2C1
5. COCC1N(C(=O)N2CCOCC2)[C@H]2CC[C@]1(O)CC2 (some centres undefined)
6. CCC(C)N1CCC2(CC1)CN(c1cncnc1)C(=O)CO2 (centres undefined)
7. CCn1cncc1Cn1ncc2ccccc2c1=O
8. CC(C)c1nn2c(-c3cnn(C)c3)nnc2s1

RESULT:
1. -4.87
2. -13.9
3. -8.89
4. -7.59
5. -1.43
6. -15.3
7. -7.38
8. -9.47

Quick one: give me cytotoxicity at 70.5 h for each item below, same order please.
1. CCS(=O)(=O)N1Cc2cncn2CC(C(=O)NCC2CC2)C1 (centres undefined)
2. Cc1ccccc1C(C)N(C)Cc1nc2c(cnn2C)c(=O)[nH]1 (centres undefined)
3. O=C(CN1CCNCC1)NCc1ccc2sccc2c1
4. CN(Cc1ccc2c(c1)OCCO2)Cn1nc(C(C)(C)C)ccc1=O
5. CCn1c(C)nnc1SCCNc1nc(C)ncc1S(C)(=O)=O

RESULT:
1.86
-6.49
3.14
12.7
-11.4

Quick one: give me cytotoxicity at 70.5 h for each item below, same order please.
1. Cc1nc(-c2ccc(Cl)s2)sc1C(=O)N(C)CC(N)=O
2. COc1ccc(CN(C)C(=O)CN2CC(n3cccn3)C2)cc1F

RESULT:
1: 11.9; 2: -0.231
